# key: entry, value: z-score
# measurement-notes: blockers of DNA damage checkpoint Chk1 activation – imaging, HeLa, hydroxyurea, phospho-Chk1 antibody, percent positive cells, primary screen (AID 1186)
# test-conditions: hydroxyurea-induced phospho-Chk1 immunofluorescence imaging, higher = more signal
measured-parameter: z-score

molecule: O=C(O)C1N=C(c2ccc(OCCCO)cc2)N(c2ccccc2)O1 (stereo not drawn)
measured-value: -0.259

molecule: COc1ccc([Si](C)(C)[C@H]2[C@H](CCO)O[C@@]3(C(=O)N(Cc4ccccc4)c4ccc(N5CCCCC5=O)cc43)[C@@H]2C)cc1
measured-value: -1.39

molecule: O=C(CS)NCCCCCNC(=O)[C@H]1C[C@H]2C(=O)NCC(=O)N2[C@H]1c1ccc(O)cc1
measured-value: -0.831

molecule: CCCC(=O)N(CCc1c[nH]c2ccccc12)[C@@H]1CC(C(=O)NCCO)=C[C@H](Oc2c(I)cc(CO)cc2OC)[C@H]1O
measured-value: -1.51

molecule: C=C(CCCC)/C(=C/C[C@@H](OC(C)=O)c1cccc(OCCO)c1)c1cnc2ccccc2c1
measured-value: -0.24

molecule: [N-]=[N+]=NCc1ccccc1[C@@H]1OC(c2ccc(OCCCO)cc2)=N[C@]1(CCS(=O)(=O)c1ccccc1)C(=O)N1CCOCC1
measured-value: -0.535

molecule: CC[C@@H]1C=C(C(=O)O)[C@H](c2ccc(C)cc2)N1S(=O)(=O)c1ccc(C)cc1
measured-value: 0.723

molecule: CC(C)CCC[C@@H](C)[C@H]1CC[C@@]2(C)C3=C(CC[C@]12C)[C@@]1(C)CC[C@H](OC(=O)c2ccc(C(F)(F)F)nc2)C(C)(C)C1CC3 (stereo partly drawn)
measured-value: -0.887

* * *

# measurement-notes: binders of probe aHhip on microarray, primary screen, stem cell growth factor project, biochemical, small-molecule microarray, fluorescence 635/667 (AID 1087);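 also: score merges spot fluorescence at 667nm with spot signal to noise ratio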
# test-conditions: higher = more signal

compound: [N-]=[N+]=Nc1ccccc1[C@H]1OC(c2ccc(OCCCO)cc2)=N[C@@]1(Cc1ccccc1)C(=O)N1CCOCC1
composite z-score: 0.0873

compound: Cc1c(NC(=O)/C(C#N)=C/c2cccc([N+](=O)[O-])c2)c(=O)n(-c2ccccc2)n1C
composite z-score: -0.0994

compound: O=C(O)C1N=C(c2ccc(OCCCO)cc2)N(c2ccccc2)O1 (stereo not given)
composite z-score: -0.136

compound: COC(=O)C(CC#Cc1ccc2c(c1)[C@]1(C(=O)N2)[C@H](c2ccc(O)cc2)N2[C@H](c3ccccc3)[C@H](c3ccccc3)OC(=O)[C@H]2[C@@H]1C(=O)N1CCN(c2ncccn2)CC1)C(=O)OC
composite z-score: 0.351

compound: COCCOC(=O)N1C(=O)[C@@]2(c3cc(C#Cc4ccc(OC)cc4)ccc31)[C@H](c1ccc(O)cc1)N1[C@H](c3ccccc3)[C@H](c3ccccc3)OC(=O)[C@H]1[C@@H]2C(=O)Nc1nc2ccccc2s1
composite z-score: -0.249

compound: CC(C)=CCCC(C)=CC(O)C1C=CC2C(=O)N(c3ccccc3)C(=O)C2N1Nc1ccc(C(C)C)cc1 (stereo not given)
composite z-score: -0.13

compound: CC(C)[Si](C#CCCCC#N)(O[C@H](c1ccccc1)c1cn(Cc2cccc(Cl)c2)nn1)C(C)C
composite z-score: 0.136

compound: COCCCNC(=O)[C@]1(Cc2ccccc2)N=C(c2ccc(OCCCO)cc2)O[C@@H]1c1ccccc1CN=[N+]=[N-]
composite z-score: -0.156

compound: COC(=O)[C@@]1(Cc2ccc(OC)cc2)[C@H]2c3cc(C(=O)N4CCCC4)n(CCCNc4ncc(C(F)(F)F)cc4Cl)c3C[C@H]2CN1C(=O)c1ccccc1
composite z-score: 1.31

compound: CCCCCN1CC=CC23O[C@@H]4C=CCOC(=O)[C@@H]4[C@H]2C(=O)N(C(C)CO)[C@@H]3C1=O (stereo not given in full)
composite z-score: -0.399

compound: COc1ccc([C@H]2C[C@H]3C(Br)=C[C@@]2(CO)C(=O)[C@]32CO2)cc1
composite z-score: -0.175

compound: C=CC[C@@]1(C(=O)N2CCCCC2)N=C(c2ccc(OCCCO)cc2)O[C@@H]1c1ccccc1N=[N+]=[N-]
composite z-score: -0.0618

compound: CO[C@H]1O[C@H](CO)[C@@H](OC(=O)Nc2ccccc2-c2ccccc2)[C@H](OC(=O)Nc2ccccc2-c2ccccc2)[C@@H]1OC(=O)Nc1ccccc1-c1ccccc1
composite z-score: -0.189

compound: COCCOC(=O)N1C(=O)[C@@]2(c3cc(C#CC4(O)CCCCCC4)ccc31)[C@H](C(=O)Nc1nc3ccccc3s1)[C@H]1C(=O)O[C@H](c3ccccc3)[C@H](c3ccccc3)N1[C@@H]2c1ccccc1OCCO
composite z-score: -0.0618

compound: COCC(=C=CC[C@H](O)c1cccc(OCCO)c1)C[C@H](O)c1cc(Cl)cc(Cl)c1O
composite z-score: -0.281
